Target: Protein cereblon (Homo sapiens)
Sequence (Q96SW2 whole entry): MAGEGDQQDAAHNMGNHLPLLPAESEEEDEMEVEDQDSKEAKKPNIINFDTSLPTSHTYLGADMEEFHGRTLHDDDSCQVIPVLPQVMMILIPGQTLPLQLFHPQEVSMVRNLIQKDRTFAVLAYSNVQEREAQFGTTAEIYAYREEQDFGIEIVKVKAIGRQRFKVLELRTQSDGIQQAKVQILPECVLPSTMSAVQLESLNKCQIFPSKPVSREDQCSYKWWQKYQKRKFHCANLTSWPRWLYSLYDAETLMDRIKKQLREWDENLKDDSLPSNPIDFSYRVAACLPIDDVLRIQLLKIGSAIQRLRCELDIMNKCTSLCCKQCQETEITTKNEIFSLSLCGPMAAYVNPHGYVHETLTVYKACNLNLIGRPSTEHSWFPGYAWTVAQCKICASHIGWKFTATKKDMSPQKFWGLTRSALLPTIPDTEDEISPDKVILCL
Experiment: Bioluminescence Resonance Energy Transfer (BRET)
readout-name: EC50
Please answer using a numeric value trailed by its unit.

Ask: Would you kindly share the measured EC50 for N#CC1(C2CN([C@H]3CCCC[C@@H]3Oc3ccc4c(c3)CN(C3CCC(=O)NC3=O)C4=O)C2)CCC1 (stereo partly specified) ?
Reply: 28 nM
